# Method notes: label from the status in PepcDB records
Measured metric: protein production

Example cases with answers are listed next.
INSERT INTO results (sequence_entry, measured_metric, value) VALUES
  ('MQDHIISFTAGILSVLSPCILPVIPVIFSESLIGNRKERFLFLSGFSSLFLFTIILTAIFTAAVNYYLLYLRVPASIMLIIMGLLVLSEKPLISIRTPPAENHVLMGLLTAIAWTPCYSPYLIGVIAYSAYTGIPGALVNMALYTLGLTITLIAVTLLAEPVLRRLLRGSRDIRRASGVLIVVAGIYMLYQLIPLP', 'protein production', 'failed'),
  ('MKIWTSEHVFDHPWETVTTAAMQKYPNPMNPSVVGVDVLDRHIDPSGKLHSHRLLSTEWGLPSIVKSLIGAARTKTYVQEHSVVDPVEKTMELKSTNISFTNMVSVDERLIYKPHPQDPEKTVLTQEAIITVKGVSLSSYLEGLMASTISSNASKGREAMEWVIHKLNAEIEELTASARGTIRTPMAAAAFAEK', 'protein production', 'failed'),
  ('MADRQLLHTAHIPVRWGDMDSYGHVNNTLYFQYLEEARVAWFETLGIDLEGAAEGPVVLQSLHTYLKPVVHPATVVVELYAGRLGTSSLVLEHRLHTLEDPQGTYGEGHCKLVWVRHAENRSTPVPDSIRAAIA', 'protein production', 'not failed'),
  ('MTTTIHMLTIIILCGIVTWLTRIIPFVMISKVHLSERVVKWLSFIPITLFTALIIDGVLVQQEGVMGYTINMPFLITMIPTIVVAIVSRSLTITILSGIIIMALLRWVF', 'protein production', 'failed'),
  ('VMPLILLPAVDVVEGRAVRLVQGKAGSQTEYGSAVDAALGWQRDGAEWIHLVDLDAAFGRGSNHELLAEVVGKLDVQVELSGGIRDDESLAAALATGCARVNVGTAALENPQWCARVIGEHGDQVAVGLDVQIIDGEHRLRGRGWETDGGDLWDVLERLDSEGCSRFVVTDITKDGTLGGPNLDLLAGVADRTDAPVIASGGVSSLDDLRAIATLTHRGVEGAIVGKALYARRFTLPQALAAVRD', 'protein production', 'not failed');

Here are 2 sequences. What values of protein production were reported for them?
1. AIAQGENVDHAQPISTWSAEQELHLVVFTKPPIAGLTKQRLSREIGSTLATRISAALVENTLATAYDWLQGLDLQAGGTGAVHLYYTPVESEQAKAECVERWLDDSVRHRYPAFRIAPQKASKVQSTGDQKQDPLGSRLIQAFTEVTSLVDESRDAHVVVIGSDCPALDTAVLQQAFAALHAGHGAVIGPAQDGGYYLLGLAFAAAERTRWARVIYAAFGPHLVFSQNDVCARTVEALRNDGVRTICLPVTLNDVDTAQDLVHLPASMRPREWFSSANARLHKTSDLVETAPAPGSTTCDEEVDADKLDPSVQNVCSRQV
2. MQSVSSMSSMDHFWLVIFCACVAFIPRFFPLLFFTKRKIPKWFNEWMRFVPVSLFTALVVKSVFIDSKYAVITSGNLGMIISAILVGFVAYRTRSMTLSVVIGLVSVMIFVLLIHI

## Output
["not failed", "failed"]
